This section presents pKi values reported for Plasminogen (Homo sapiens) in the literature.
pKi: −log10 of the molar value.

# smiles.structure, pKi
rows = [
    ("NC(N)=Nc1ncc(Cl)c2ccc(S(=O)(=O)N(CC(=O)O)c3ccccc3)cc12", "< 4.00"),
    ("N=C(N)Nc1ccc(CNC(=O)N2CCN(C(=O)O[C@H]3CCC[C@@H](OC(=O)N4CCN(C(=O)CCCCCn5ccnc5)CC4)CCC3)CC2)cc1", "< 3.00"),
    ("N=C(N)c1ccc2[nH]c(Oc3ccc(-c4nc5cc(C(=N)N)ccc5[nH]4)cc3)nc2c1", "~3.70"),
    ("CN1CCc2nc(C(=O)N[C@@H]3C[C@@H](C(=O)N(C)C)CC[C@@H]3NC(=O)c3cc4cc(Cl)ccc4[nH]3)sc2C1", "< 4.00"),
]

---

pKi: −log10 of the molar value.
Reported pKi on UniProt P00747 for assorted molecules, compiled from publications.

# smiles.structure, pKi
records = [
    ("N=C(N)N1CCC(CCC(=O)N2CCN(C(=O)O[C@H]3CCC[C@@H](OC(=O)N4CCN(C(=O)CCC5CCN(C(=N)N)CC5)CC4)CCC3)CC2)CC1", "< 3.00"),
    ("Cc1cc2cc(N=C(NC(=O)c3ccc(C(=O)N(C)C)nc3)N[C@H]3CCCCN(CC(=O)N4CCCC4)C3=O)ccc2o1", "< 4.80"),
    ("NCCc1ccc(CC(=O)N2CCN(C(=O)O[C@H]3CCC[C@@H](OC(=O)N4CCN(C(=O)Cc5ccc(CCN)cc5)CC4)CCC3)CC2)cc1", "< 3.00"),
    ("N/C(=N\\O)c1ccc(CNC(=O)CNC(=O)[C@@H](CO)NS(=O)(=O)Cc2ccccc2)cc1", "< 3.00"),
    ("N=C(N)Nc1ccc(CNC(=O)OCc2ccccc2)cc1", "< 3.00"),
    ("Cn1cncc1CCNC(=O)CN1CCN(S(=O)(=O)c2cc3ccc(Cl)cc3s2)CC1=O", "< 5.14"),
    ("COC(=O)Nc1ccc(-c2ccnc([C@H](Cc3ccccc3)NC(=O)[C@H]3CC[C@H](CN)CC3)c2)cc1", "< 4.66"),
]

---

pKi: −log10 of the molar value.
Compiled record: pKi values for Plasminogen (Homo sapiens, UniProt P00747) across several sources.

# smiles.structure, pKi
records = [
    ("Cc1cc(OCCCCN=C(N)N)cc(OS(=O)(=O)c2ccccc2Cl)c1", "< 3.70"),
    ("COc1ccc(-n2nc(C(N)=O)cc2C(=O)Cc2ccc(-n3ccccc3=O)cc2F)cc1", "< 4.55"),
    ("NCc1ccc(CNC(=O)CNC(=O)OCc2ccc(COC(=O)NCC(=O)NCc3ccc(CN)cc3)cc2)cc1", "< 3.00"),
    ("N=C(N)Nc1ccc(CNC(=O)CCCC(=O)NCc2ccc(CNC(=O)CCCC(=O)NCc3ccc(NC(=N)N)cc3)cc2)cc1", "< 3.00"),
    ("N=C(N)Nc1ccc(CNC(=O)N2CCN(C(=O)CCCCCC(=O)N3CCN(C(=O)NCc4ccc(NC(=N)N)cc4)CC3)CC2)cc1", "< 3.00"),
    ("N=C(N)Nc1ccc(CNC(=O)N2CCN(C(=O)OCc3ccc(COC(=O)N4CCN(C(=O)NCc5ccc(NC(=N)N)cc5)CC4)cc3)CC2)cc1", "< 3.00"),
]

---

The entries that follow carry pKi values tested on UniProt P00747, drawn from several published reports.
pKi: −log10 of the molar value.

# molecule, pKi
measured = [
    ("Nc1ncnc2cc(CN3CCN(S(=O)(=O)c4nc5ccc(Cl)cc5[nH]4)CC3=O)ccc12", "< 5.14"),
    ("CC(=N)N1CCC(CNC(=O)N2CCN(C(=O)O[C@H]3CCC[C@@H](OC(=O)N4CCN(C(=O)NCC5CCN(C(C)=N)CC5)CC4)CCC3)CC2)CC1", "< 3.00"),
    ("NC(N)=Nc1ncc(Cl)c2ccc(S(=O)(=O)N(CC(=O)O)Cc3ccccc3)cc12", "< 4.00"),
    ("CN(CC(=O)NCc1ccc(CN)cc1)C(=O)OCc1ccc(COC(=O)N(C)CC(=O)NCc2ccc(CN)cc2)cc1", "< 3.64"),
    ("Cc1cc(OCCCCCN=C(N)N)cc(OS(=O)(=O)c2ccccc2Cl)c1", "< 3.70"),
    ("CC1=C(CC(=O)NCc2cc(Cl)ccc2CN)C(=O)N(NCc2ccccc2)CC1", "< 4.72"),
    ("NC(N)=Nc1ncc(Cl)c2ccc(S(=O)(=O)N3CCC[C@H]3C(=O)O)cc12", "< 4.00"),
    ("COc1ccc(-n2nc(C(N)=O)c3ncn(-c4ccc(-c5ccccc5CN5CCCC5)cc4F)c(=O)c32)cc1", "< 4.82"),
    ("CCc1cc2ccc1CCOC(=O)Nc1ccc(S(=O)(=O)C(C)C)c(c1)CN(C)C(=O)[C@@H]2Nc1cccc(C(N)=O)c1 (stereo in doubt; 14)", "< 5.00"),
    ("N=C(N)Nc1ccc(CNC(=O)N2CCN(C(=O)O[C@H]3CCC[C@@H](OC(=O)N4CCN(C(=O)CCSc5ccncc5)CC4)CCC3)CC2)cc1", "< 3.00"),
    ("O=S(=O)(Nc1cccc(OCCNc2ccncc2)c1)c1ccccc1", "< 3.30"),
    ("Cc1nc2c(C(F)(F)F)nn(-c3ccc4onc(N)c4c3)c2c(=O)n1-c1ccc(-c2ccccc2CN(C)C)cc1", "< 4.60"),
    ("N=C(N)Nc1ccc(CNC(=O)N2CCN(C(=O)O[C@H]3CCC[C@@H](OC(=O)N4CCN(C(=O)NC[C@H]5CC[C@H](N)CC5)CC4)CCC3)CC2)cc1", "< 3.00"),
]
